Data origin: patent US20210107971A1

Biological target: recombinant full-length human alpha synuclein monomer (human, UniProt P37840 1-140)
Assay: SPR, Biacore T200, as in Example 3; Fab injected;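 note: ligands amine-coupled on CM5 chip flow cells, HBS-EP+ running buffer, kinetic data fitted with 1:1 model allowing local bulk contribution and global Rmax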
Readout Type: kon (M⁻¹ s⁻¹)
Entry rule: numbers only, all in M⁻¹ s⁻¹.

Binder	kon (M⁻¹ s⁻¹)
6470 rabbit Fab with light chain mutation N33R (Fab, V domains shown) VH: QSVEESGGRLVTPGTPLTLTCTVSGIDLSSHDMYWVRQAPGKGLEYIGAIYASGSTYYASWAKGRFTISKTSTTVDLKMTSLTTEDTATYFCARIHYGNSGGLWGQGTLVTVSS VL: AIVMTQTPSSKSVAVGDTVTINCQASQSVYKNRYLAWFQQKPGQPPKQLIYGASTLASGVPSRFKGSGSGTQFTLTISDVVCDDAATYYCAGYKGGRNDGFAFGGGTEVVVKR	1.92e+07
6470 rabbit Fab with heavy chain mutation N99R (Fab, V domains shown) VH: QSVEESGGRLVTPGTPLTLTCTVSGIDLSSHDMYWVRQAPGKGLEYIGAIYASGSTYYASWAKGRFTISKTSTTVDLKMTSLTTEDTATYFCARIHYGRSGGLWGQGTLVTVSS VL: AIVMTQTPSSKSVAVGDTVTINCQASQSVYKNNYLAWFQQKPGQPPKQLIYGASTLASGVPSRFKGSGSGTQFTLTISDVVCDDAATYYCAGYKGGRNDGFAFGGGTEVVVKR	1.22e+07
6470 rabbit Fab with heavy chain mutation S53N (Fab, V domains shown) VH: QSVEESGGRLVTPGTPLTLTCTVSGIDLSSHDMYWVRQAPGKGLEYIGAIYANGSTYYASWAKGRFTISKTSTTVDLKMTSLTTEDTATYFCARIHYGNSGGLWGQGTLVTVSS VL: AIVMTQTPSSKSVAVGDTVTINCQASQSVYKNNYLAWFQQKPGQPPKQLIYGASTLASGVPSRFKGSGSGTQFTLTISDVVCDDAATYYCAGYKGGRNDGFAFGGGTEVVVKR	45600
6470 rabbit Fab with light chain mutation N33K (Fab, V domains shown) VH: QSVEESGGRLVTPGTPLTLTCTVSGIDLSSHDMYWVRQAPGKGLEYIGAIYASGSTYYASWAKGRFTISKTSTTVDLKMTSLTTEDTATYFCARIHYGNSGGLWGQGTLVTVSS VL: AIVMTQTPSSKSVAVGDTVTINCQASQSVYKNKYLAWFQQKPGQPPKQLIYGASTLASGVPSRFKGSGSGTQFTLTISDVVCDDAATYYCAGYKGGRNDGFAFGGGTEVVVKR	2.84e+06

With those in mind, consider the next binder.
Entry under test: 6470 rabbit Fab with heavy chain mutation H31Q (Fab, V domains shown) VH: QSVEESGGRLVTPGTPLTLTCTVSGIDLSSQDMYWVRQAPGKGLEYIGAIYASGSTYYASWAKGRFTISKTSTTVDLKMTSLTTEDTATYFCARIHYGNSGGLWGQGTLVTVSS VL: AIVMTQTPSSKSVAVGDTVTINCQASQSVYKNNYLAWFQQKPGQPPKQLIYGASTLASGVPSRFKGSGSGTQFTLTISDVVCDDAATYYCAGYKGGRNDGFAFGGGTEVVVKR . Its kon was 8e+06
